# credit: ChEMBL document CHEMBL1156029

Target: Vascular endothelial growth factor receptor 1 (Homo sapiens, UniProt P17948)
Sequence (P17948 whole entry): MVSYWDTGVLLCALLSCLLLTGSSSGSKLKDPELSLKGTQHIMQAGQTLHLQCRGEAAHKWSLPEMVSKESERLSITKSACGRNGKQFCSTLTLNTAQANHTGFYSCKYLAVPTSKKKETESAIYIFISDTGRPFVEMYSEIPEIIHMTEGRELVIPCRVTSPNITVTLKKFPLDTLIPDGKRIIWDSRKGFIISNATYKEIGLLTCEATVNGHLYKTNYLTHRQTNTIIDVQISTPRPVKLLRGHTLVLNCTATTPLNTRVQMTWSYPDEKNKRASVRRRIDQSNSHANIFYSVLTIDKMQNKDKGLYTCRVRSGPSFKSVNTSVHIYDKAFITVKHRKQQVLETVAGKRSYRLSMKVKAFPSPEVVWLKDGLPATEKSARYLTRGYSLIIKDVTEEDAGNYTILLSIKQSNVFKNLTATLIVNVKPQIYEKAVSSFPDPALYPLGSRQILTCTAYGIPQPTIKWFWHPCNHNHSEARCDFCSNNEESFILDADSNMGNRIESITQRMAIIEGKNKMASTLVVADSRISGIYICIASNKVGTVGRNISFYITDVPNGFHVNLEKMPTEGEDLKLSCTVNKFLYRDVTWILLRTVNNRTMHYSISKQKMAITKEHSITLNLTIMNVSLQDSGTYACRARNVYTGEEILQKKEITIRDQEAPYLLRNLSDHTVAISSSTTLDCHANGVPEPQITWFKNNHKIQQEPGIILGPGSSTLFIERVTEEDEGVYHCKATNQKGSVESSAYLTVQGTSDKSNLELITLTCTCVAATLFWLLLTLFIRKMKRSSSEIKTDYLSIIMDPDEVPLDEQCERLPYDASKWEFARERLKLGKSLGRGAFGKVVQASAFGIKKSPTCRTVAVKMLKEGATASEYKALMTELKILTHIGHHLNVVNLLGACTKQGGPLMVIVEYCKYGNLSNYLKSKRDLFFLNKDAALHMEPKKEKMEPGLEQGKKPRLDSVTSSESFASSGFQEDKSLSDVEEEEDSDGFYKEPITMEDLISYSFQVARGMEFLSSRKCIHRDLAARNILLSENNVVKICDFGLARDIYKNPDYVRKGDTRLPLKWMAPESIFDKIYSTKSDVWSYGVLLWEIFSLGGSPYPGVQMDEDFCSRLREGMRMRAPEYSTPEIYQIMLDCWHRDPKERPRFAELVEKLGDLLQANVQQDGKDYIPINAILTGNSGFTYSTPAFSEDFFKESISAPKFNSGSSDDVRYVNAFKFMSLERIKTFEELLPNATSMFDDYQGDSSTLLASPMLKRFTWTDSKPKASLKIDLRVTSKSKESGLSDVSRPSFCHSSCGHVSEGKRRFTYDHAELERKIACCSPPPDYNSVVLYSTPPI
measurement.kind: IC50

Query: Given the compound CCCc1cc(N2CCCC(O)C2)nc2sc(C(N)=O)c(N)c12 (stereo unspecified) , what is its reported IC50?
Response: > 7 µM

====

Target: Platelet-derived growth factor receptor alpha (Homo sapiens, UniProt P16234)
Sequence (P16234 whole entry): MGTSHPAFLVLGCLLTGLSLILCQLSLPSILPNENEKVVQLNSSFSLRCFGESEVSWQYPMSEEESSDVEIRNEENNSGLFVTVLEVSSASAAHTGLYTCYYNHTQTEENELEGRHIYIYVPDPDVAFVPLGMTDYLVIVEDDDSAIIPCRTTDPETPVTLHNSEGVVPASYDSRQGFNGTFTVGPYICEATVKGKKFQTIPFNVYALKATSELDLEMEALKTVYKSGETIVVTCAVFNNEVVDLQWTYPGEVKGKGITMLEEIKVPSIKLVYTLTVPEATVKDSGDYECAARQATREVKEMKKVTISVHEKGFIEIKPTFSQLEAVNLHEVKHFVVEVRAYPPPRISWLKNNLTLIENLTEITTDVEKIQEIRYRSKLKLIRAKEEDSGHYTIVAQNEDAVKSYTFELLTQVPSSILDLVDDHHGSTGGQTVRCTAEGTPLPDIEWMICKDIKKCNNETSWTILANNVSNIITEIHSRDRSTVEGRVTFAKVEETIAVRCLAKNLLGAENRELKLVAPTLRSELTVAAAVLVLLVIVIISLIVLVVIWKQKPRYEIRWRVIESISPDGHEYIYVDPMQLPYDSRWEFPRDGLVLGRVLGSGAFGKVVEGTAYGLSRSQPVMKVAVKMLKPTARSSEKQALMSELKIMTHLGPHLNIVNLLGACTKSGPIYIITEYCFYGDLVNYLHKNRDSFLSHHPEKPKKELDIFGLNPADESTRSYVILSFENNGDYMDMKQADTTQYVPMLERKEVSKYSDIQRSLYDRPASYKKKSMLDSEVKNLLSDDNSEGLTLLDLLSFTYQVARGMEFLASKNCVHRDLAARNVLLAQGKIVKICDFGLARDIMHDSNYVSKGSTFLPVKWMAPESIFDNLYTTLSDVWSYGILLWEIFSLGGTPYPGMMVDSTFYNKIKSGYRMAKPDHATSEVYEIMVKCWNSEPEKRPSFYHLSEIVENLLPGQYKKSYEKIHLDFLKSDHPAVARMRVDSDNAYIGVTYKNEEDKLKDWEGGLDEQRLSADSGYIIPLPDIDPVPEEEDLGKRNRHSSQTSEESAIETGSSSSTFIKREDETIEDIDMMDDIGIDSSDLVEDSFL
measurement.kind: IC50

CCCc1cc(N2CCCC(O)C2)nc2sc(C(N)=O)c(N)c12 (stereo not drawn)	> 7 µM
CCCc1cc(N2CCC(N)CC2)nc2sc(C(N)=O)c(N)c12	> 7 µM

Kindly consider the entry below.
Query: Value wanted: IC50 (Platelet-derived growth factor receptor alpha (Homo sapiens, UniProt P16234)) of entry CCCc1cc(N2CCNCC2)nc2sc(C(N)=O)c(N)c12
Response: 0.3 µM

====

Target: Insulin-like growth factor 1 receptor (Homo sapiens, UniProt P08069)
Sequence (P08069 31-736 limits assumed): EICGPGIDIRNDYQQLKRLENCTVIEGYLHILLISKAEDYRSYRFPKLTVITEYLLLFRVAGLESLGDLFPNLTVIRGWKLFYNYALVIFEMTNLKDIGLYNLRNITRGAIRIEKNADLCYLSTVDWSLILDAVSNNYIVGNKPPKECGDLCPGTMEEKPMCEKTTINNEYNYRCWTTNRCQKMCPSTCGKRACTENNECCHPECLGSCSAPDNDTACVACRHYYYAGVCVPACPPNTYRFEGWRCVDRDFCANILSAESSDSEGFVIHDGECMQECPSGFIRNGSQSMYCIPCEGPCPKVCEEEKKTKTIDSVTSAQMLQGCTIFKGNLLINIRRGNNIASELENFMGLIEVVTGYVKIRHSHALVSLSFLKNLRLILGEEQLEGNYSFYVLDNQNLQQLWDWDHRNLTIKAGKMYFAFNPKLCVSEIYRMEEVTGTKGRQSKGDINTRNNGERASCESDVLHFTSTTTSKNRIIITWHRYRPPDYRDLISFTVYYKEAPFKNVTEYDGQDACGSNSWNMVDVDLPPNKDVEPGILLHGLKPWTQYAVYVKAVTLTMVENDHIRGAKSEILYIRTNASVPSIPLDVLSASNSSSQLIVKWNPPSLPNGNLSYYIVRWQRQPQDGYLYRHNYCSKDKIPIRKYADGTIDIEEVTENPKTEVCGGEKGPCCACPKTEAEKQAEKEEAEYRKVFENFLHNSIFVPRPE
Sequence (P08069 741-1367 limits assumed): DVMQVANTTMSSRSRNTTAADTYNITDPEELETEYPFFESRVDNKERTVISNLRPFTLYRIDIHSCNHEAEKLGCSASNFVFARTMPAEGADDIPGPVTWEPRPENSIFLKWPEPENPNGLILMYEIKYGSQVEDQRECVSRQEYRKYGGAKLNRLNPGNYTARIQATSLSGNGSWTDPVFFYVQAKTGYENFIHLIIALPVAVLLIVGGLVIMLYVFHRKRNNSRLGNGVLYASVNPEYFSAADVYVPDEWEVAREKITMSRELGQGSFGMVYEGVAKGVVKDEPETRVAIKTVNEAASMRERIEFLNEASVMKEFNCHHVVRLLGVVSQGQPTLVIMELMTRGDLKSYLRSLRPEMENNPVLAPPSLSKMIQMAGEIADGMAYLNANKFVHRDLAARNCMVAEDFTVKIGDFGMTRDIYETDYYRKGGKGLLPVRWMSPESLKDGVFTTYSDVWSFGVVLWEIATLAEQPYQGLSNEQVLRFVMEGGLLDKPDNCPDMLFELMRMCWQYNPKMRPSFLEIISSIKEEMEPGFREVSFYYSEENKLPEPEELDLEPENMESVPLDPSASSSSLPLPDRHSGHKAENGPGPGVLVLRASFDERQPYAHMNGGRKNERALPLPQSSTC
measurement.kind: IC50

Query: Value wanted: IC50 (Insulin-like growth factor 1 receptor (Homo sapiens, UniProt P08069)) of entry CCCc1cc(N2CCNCC2)nc2sc(C(N)=O)c(N)c12
Response: > 7 µM

====

Target: Inhibitor of nuclear factor kappa-B kinase subunit beta (Homo sapiens)
Sequence (O14920 whole entry): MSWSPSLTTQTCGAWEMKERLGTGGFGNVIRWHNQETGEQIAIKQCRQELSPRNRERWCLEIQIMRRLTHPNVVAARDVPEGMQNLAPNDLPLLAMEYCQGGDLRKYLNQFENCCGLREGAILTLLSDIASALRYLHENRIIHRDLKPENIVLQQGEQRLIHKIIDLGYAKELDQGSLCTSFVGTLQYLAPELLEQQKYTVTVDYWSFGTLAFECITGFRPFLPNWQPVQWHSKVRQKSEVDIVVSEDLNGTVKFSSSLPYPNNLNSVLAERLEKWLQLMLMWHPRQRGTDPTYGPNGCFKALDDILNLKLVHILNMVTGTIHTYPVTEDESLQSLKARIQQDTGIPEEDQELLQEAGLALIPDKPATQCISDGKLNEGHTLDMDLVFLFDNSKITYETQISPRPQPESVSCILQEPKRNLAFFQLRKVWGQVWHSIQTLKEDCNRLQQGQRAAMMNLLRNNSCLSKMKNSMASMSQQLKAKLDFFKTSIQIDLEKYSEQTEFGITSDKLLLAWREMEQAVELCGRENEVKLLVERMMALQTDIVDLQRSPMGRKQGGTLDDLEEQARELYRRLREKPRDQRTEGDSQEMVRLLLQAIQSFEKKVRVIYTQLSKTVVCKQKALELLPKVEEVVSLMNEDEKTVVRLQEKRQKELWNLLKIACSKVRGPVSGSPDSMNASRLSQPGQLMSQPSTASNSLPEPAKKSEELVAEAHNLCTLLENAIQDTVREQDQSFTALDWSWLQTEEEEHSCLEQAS
Assay: Inhibition of Flag epitope-tagged IKK-beta preincubated for 5 mins by scintillation proximity assay
pIC50: −log10 of the molar value.
# pIC50 >= 6 gives Fulfilled, anything below gives Not fulfilled

As a guide, the following entries are already answered.
Cc1cc(N2CCCCC2)nc2sc(C(N)=O)c(N)c12	Not fulfilled
CCCc1cc(N2CCC(O)C(C)(C)C2)nc2sc(C(N)=O)c(N)c12 (single isomer, unassigned; enantiomer 2)	Fulfilled
CCCc1cc(N2CC[C@H](N)C2)nc2sc(C(N)=O)c(N)c12	Fulfilled
CCCc1cc(N2CC[C@@H](O)C2)nc2sc(C(N)=O)c(N)c12	Not fulfilled
Cc1ccc2c(N)c(C(N)=O)sc2n1	Not fulfilled

Query: Could you verify whether the entry CCCc1cc(N2CCC(O)CC2)nc2sc(C(N)=O)c(N)c12 shows pIC50 of no less than 6?
Response: Fulfilled

Query: Could you verify whether the entry CCCc1cc(N2CCC(NC)CC2)nc2sc(C(N)=O)c(N)c12 shows pIC50 of no less than 6?
Response: Fulfilled

Query: Could you verify whether the entry Cc1cc(C)c2c(N)c(C(N)=O)sc2n1 shows pIC50 of no less than 6?
Response: Not fulfilled

====

Assay: Plasma concentration in mouse at 100 mg/kg, po after 120 mins
Assay type: ADME, organism-based
Design: dose 100 mg/kg, route oral
measurement.kind: concentration at 2 h (µM)
Please respond with the number in µM and leave the unit unwritten.

Solved entries (count: 3):
CCCc1cc(N2CCC(N)CC2)nc2sc(C(N)=O)c(N)c12	2.8
CCCc1cc(N2CCNCC2)nc2sc(C(N)=O)c(N)c12	3.5
CCCc1cc(N2CCCC(O)C2)nc2sc(C(N)=O)c(N)c12 (centres undefined)	22.5

Kindly consider the entry below.
Query: Given the compound CCCc1cc(N2CCC(O)CC2)nc2sc(C(N)=O)c(N)c12 , what is its reported concentration at 2 h?
Response: 42.3

====

# IC50 per entry for Tyrosine-protein kinase BTK (Homo sapiens, UniProt Q06187)

CCCc1cc(N2CCC(O)CC2)nc2sc(C(N)=O)c(N)c12	> 7 µM

Kindly consider the entry below.
Query: Value wanted: IC50 (Tyrosine-protein kinase BTK (Homo sapiens, UniProt Q06187)) of entry CCCc1cc(N2CCCC(O)C2)nc2sc(C(N)=O)c(N)c12 (configuration not stated)
Response: > 7 µM
